assay: Tmax in ICR (CD-1) mouse at 20 mg/kg, po administered as single dose by LC-MS analysis; format: ADME, organism-based; details: in vivo
Parameter Measured: Tmax

In [3]: df
Out[3]:
                                  structure  obs_value
0  CCCN1C(=N)[C@@H]([C@H](C[C@@H]2CCCNC2=O)NC(=O)[C@H](Cc2ccc(F)cc2)NC(=O)c2cc(C)on2)OC1=O     15 min

====

experiment: Drug metabolism in PBS buffer at pH 7.4; assay type: physicochemical
Parameter Measured: Drug metabolism

                                  structure               obs_value
0  CCCNC(=O)O[C@@H](C#N)[C@H](C[C@@H]1CCCNC1=O)NC(=O)[C@H](Cc1ccc(F)cc1)NC(=O)c1cc(C)on1     Metabolite_Detected
1  Cc1cc(C(=O)N[C@@H](Cc2ccc(F)cc2)C(=O)N[C@@H](C[C@@H]2CCCNC2=O)[C@H](C#N)OC(=O)NC(C)C)no1     Metabolite_Detected
2  CCN(C)C(=O)O[C@@H](C#N)[C@H](C[C@@H]1CCCNC1=O)NC(=O)[C@H](Cc1ccc(F)cc1)NC(=O)c1cc(C)on1  Metabolite_Notdetected
3  Cc1cc(C(=O)N[C@@H](Cc2ccc(F)cc2)C(=O)N[C@@H](C[C@@H]2CCCNC2=O)[C@H](C#N)OC(=O)N2CCOCC2)no1  Metabolite_Notdetected

====

assay: Half life in ICR (CD-1) mouse at 20 mg/kg, iv administered as single dose by LC-MS analysis; type: ADME, organism-based; settings: in vivo
Parameter Measured: half-life (min)

                                  structure  parameter_measured  obs_value
0  CCCN1C(=N)[C@@H]([C@H](C[C@@H]2CCCNC2=O)NC(=O)[C@H](Cc2ccc(F)cc2)NC(=O)c2cc(C)on2)OC1=O           half-life         51

====

system: Mus musculus; experiment: AUC (0 to t) in ICR (CD-1) mouse at 20 mg/kg, iv administered as single dose by LC-MS analysis; assay type: ADME, organism-based; settings: in vivo
Parameter Measured: AUCt (ng·h/mL)

>>> print(df.to_string())
                                  structure  obs_value
0  CCCN1C(=N)[C@@H]([C@H](C[C@@H]2CCCNC2=O)NC(=O)[C@H](Cc2ccc(F)cc2)NC(=O)c2cc(C)on2)OC1=O       2340

====

Quick list: microsomal CLint per entry.
test: Intrinsic clearance in mouse liver microsomes at 1 mg/ml in presence of NADPH regenerating system by HPLC analysis; assay type: ADME, microsome; conditions: read-out: CLH
Parameter Measured: microsomal CLint (µL/min/mg)

                                  structure  obs_value
0  Cc1cc(C(=O)N[C@@H](Cc2ccc(F)cc2)C(=O)N[C@@H](C[C@@H]2CCCNC2=O)[C@@H](O)C#N)no1        116
1  CCCN1C(=N)[C@@H]([C@H](C[C@@H]2CCCNC2=O)NC(=O)[C@H](Cc2ccc(F)cc2)NC(=O)c2cc(C)on2)OC1=O         20
2  Cc1cc(C(=O)N[C@@H](Cc2ccc(F)cc2)C(=O)N[C@@H](C[C@@H]2CCCNC2=O)[C@H]2OC(=O)N(C(C)C)C2=N)no1          9
